- tgt: SmD2 (Schistosoma mansoni)
- Sequence (G4LUJ1 entry or part of it): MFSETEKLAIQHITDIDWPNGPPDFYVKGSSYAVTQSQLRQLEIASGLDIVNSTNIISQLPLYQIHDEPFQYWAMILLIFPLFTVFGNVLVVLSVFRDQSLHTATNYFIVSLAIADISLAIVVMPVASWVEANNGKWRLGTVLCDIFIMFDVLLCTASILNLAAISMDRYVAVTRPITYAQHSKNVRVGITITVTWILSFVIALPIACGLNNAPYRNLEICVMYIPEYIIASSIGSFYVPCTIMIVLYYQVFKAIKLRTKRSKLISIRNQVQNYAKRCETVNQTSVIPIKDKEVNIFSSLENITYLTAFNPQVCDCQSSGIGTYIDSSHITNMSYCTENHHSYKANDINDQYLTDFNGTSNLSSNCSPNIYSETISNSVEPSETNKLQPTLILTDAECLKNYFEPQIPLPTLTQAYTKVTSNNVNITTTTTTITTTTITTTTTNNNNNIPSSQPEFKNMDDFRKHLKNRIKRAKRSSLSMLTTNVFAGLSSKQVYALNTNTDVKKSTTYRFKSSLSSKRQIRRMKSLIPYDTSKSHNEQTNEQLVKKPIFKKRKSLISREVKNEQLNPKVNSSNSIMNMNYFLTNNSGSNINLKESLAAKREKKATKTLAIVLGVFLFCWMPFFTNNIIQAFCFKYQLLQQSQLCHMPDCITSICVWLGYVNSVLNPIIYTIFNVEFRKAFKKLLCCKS
- experiment summary: cell-based
- Type: cell-based
pIC50: −log10 of the molar value.
assay endpoint: pIC50

>>> recorded_number("CNCC[C@H](Oc1cccc2ccccc12)c1cccs1")
5.23

====

- Test system: S. mansoni schistosomulae
- experiment summary: Motility assay on schistosomulae (pixel displacement, relative to DMSO control)
- Assay type: cell-based, Schistosoma mansoni
- condition parameters: schistosomulae, secondary screen, 24h exposure, read at D5, 1 µM
assay endpoint: Fractional motility

>>> recorded_number("O=C(NC(NC(=S)Nc1ccc(F)c([N+](=O)[O-])c1)C(Cl)(Cl)Cl)C(c1ccccc1)c1ccccc1 (centres unmarked)")
-0.07
>>> recorded_number("c1ccc(CNc2nc(NCc3ccccc3)c3ccccc3n2)cc1")
-0.29
>>> recorded_number("NS(=O)(=O)C#Cc1ccccc1")
-0.80
>>> recorded_number("N#CSc1cc(SC#N)c(N)nc1N")
0.18
>>> recorded_number("O=C(Nc1ccccc1-c1cn2c(CN3CCNCC3)csc2n1)c1cnc2ccccc2n1")
0.36

Where do these numbers come from? They come from paper PMC7284125.
